System: scopolamine-induced amnesic mice
Assay: Novel object recognition test (NORT), scopolamine-induced amnesia
Format: in vivo
Conditions: long-term memory (after 24 h), 15 mg/kg
measured-quantity: discrimination index (DI) (%)
// units = %; emit number, no label

Examples from the recorded data:
Cc1ccc(/C=C/C(=O)CC(=O)/C=C/c2ccc(C)cc2)cc1 ... 53.61
O=C(/C=C/c1ccc(Cl)cc1)CC(=O)/C=C/c1ccc(Cl)cc1 ... 64.61

Next:
Query: discrimination index (DI); subject: COc1ccc(/C=C/C(=O)CC(=O)/C=C/c2ccc(OC)cc2)cc1
62.28

====

Tested on: scopolamine-induced amnesic mice
Test: Elevated plus maze (EPM), scopolamine-induced amnesia
Type: in vivo
Conditions: 15 mg/kg p.o. 7 days, scopolamine 1 mg/kg i.p.
measured-quantity: effect on TLT vs amnesic group

O=C(/C=C/c1ccc([N+](=O)[O-])cc1)CC(=O)/C=C/c1ccc([N+](=O)[O-])cc1 ... non-significant
CN(C)c1ccc(/C=C/C(=O)CC(=O)/C=C/c2ccc(N(C)C)cc2)cc1 ... non-significant
O=C(/C=C/c1ccccc1)CC(=O)/C=C/c1ccccc1 ... non-significant
